# method: Plasma clearance in rat
# Format: ADME, organism-based
reportedProperty: clearance (mL/min/kg)
Expressed in mL/min/kg, but write only the number.

Recorded clearance for "O=C(NCc1ccc(F)cc1)c1nc(-c2cccs2)nc(O)c1O" , please?
11

----------
# subjectOfTest: Human immunodeficiency virus type 1 integrase (Human immunodeficiency virus 1, UniProt Q7ZJM1)
# Sequence (Q7ZJM1 whole entry): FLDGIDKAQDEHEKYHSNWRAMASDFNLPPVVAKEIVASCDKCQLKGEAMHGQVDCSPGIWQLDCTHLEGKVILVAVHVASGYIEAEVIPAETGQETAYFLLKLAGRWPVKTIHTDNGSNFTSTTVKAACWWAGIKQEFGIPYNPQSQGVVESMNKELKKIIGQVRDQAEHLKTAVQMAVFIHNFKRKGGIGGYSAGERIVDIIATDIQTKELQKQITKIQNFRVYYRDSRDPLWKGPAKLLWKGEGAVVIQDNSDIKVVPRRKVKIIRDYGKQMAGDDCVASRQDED
Please respond with reported pIC50 for every item in the list.
// field semantics: pIC50 = negative decimal log of concentration (mol/L)

Recorded pIC50 of "O=C(N[C@H]1CCc2ccccc21)c1nc(-c2cccs2)nc(O)c1O" , please.
7.70

Given the entry "O=C(Nc1cccc2ccccc12)c1nc(-c2cccs2)nc(O)c1O" , report its measured pIC50.
7.52

Endpoint output: pIC50 of "O=C(Nc1cc2ccccc2s1)c1nc(-c2cccs2)nc(O)c1O" . Value?
8.00

What does the record list as pIC50 for "C[C@@H](NC(=O)c1nc(-c2cccs2)nc(O)c1O)c1ccc2ccccc2c1" ?
6.21

pIC50 for "Cc1ccccc1CNC(=O)c1nc(-c2cccs2)nc(O)c1O" ?
6.96

Give the measured pIC50 of "CN(C(=O)c1nc(-c2cccs2)nc(O)c1O)c1cccc2ccccc12" .
6.68

Quick one: pIC50 for "Cc1cccc(CNC(=O)c2nc(-c3cccs3)nc(O)c2O)c1" ?
7.40

Look up pIC50 for this compound: "O=C(NCc1cccc(-c2ccccc2)c1)c1nc(-c2cccs2)nc(O)c1O"
7.30

For the compound shown here, "O=C(NCc1c[nH]c2ccccc12)c1nc(-c2cccs2)nc(O)c1O" , give the reported pIC50.
7.70

Please report the recorded pIC50 for "COc1ccccc1CNC(=O)c1nc(-c2cccs2)nc(O)c1O" .
7.05

Please give the measured pIC50 for this compound: "O=C(NCc1ccc(Cl)c(Cl)c1)c1nc(-c2cccs2)nc(O)c1O"
8.00

Report pIC50 for "O=C(Nc1ccccc1)c1nc(-c2cccs2)nc(O)c1O" please.
6.00

Give the measured pIC50 of "O=C(N[C@@H]1CCc2ccccc21)c1nc(-c2cccs2)nc(O)c1O" .
6.21

Name the recorded pIC50 for "O=C(NCc1ccccc1-c1ccccc1)c1nc(-c2cccs2)nc(O)c1O" .
6.89

What value of pIC50 has been reported for the following compound? "O=C(NCc1ccncc1)c1nc(-c2cccs2)nc(O)c1O"
4.78

May I ask what pIC50 has been recorded for "O=C(NCc1ccc(Cl)cc1)c1nc(-c2cccs2)nc(O)c1O" ?
7.70

Using the record for "O=C(Nc1nccs1)c1nc(-c2cccs2)nc(O)c1O" , report its pIC50.
6.70

Request the reported pIC50 associated with "O=C(NCc1cccc(F)c1)c1nc(-c2cccs2)nc(O)c1O"
7.15

Given the entry "O=C(NCc1ccc(-c2ccccc2)cc1)c1nc(-c2cccs2)nc(O)c1O" , report its measured pIC50.
4.30

Suppose we examine the compound "C[C@H](NC(=O)c1nc(-c2cccs2)nc(O)c1O)c1ccc2ccccc2c1" ; what pIC50 value has been reported?
7.40

# query: pIC50 of entry "COc1cccc(CNC(=O)c2nc(-c3cccs3)nc(O)c2O)c1"
7.30

Tell me the measured pIC50 of "Cc1ccc(CNC(=O)c2nc(-c3cccs3)nc(O)c2O)cc1" , please.
7.15

Consider the compound "O=C(NCCc1ccccc1)c1nc(-c2cccs2)nc(O)c1O" and give its measured pIC50.
7.70

----------
# method: Oral bioavailability in rat
# Format: ADME, organism-based
# conditionLabel: in vivo
reportedProperty: bioavailability
The answer consists of two parts: a number and, after it, its unit.

Please give the measured bioavailability for this molecule: "O=C(NCc1ccc(F)cc1)c1nc(-c2cccs2)nc(O)c1O"
39%

----------
# subjectOfTest: Human immunodeficiency virus type 1 integrase (Human immunodeficiency virus 1, UniProt Q7ZJM1)
# method: Inhibition of HIV1 integrase strand transfer activity
reportedProperty: IC50 (µM)
Report the value in µM with no unit label.

Entry under review: "O=C(Nc1csc2ccccc12)c1nc(-c2cccs2)nc(O)c1O" . Reported IC50?
0.05

Please give the measured IC50 for this compound: "O=C(Nc1cncs1)c1nc(-c2cccs2)nc(O)c1O"
2.5

Request the reported IC50 associated with "COc1ccc(CNC(=O)c2nc(-c3cccs3)nc(O)c2O)cc1"
0.55

Returns the measured IC50 for the input compound. Input: "O=C(Nc1cccs1)c1nc(-c2cccs2)nc(O)c1O"
0.1

Form field: reported IC50 of "O=C(NCc1ccccc1F)c1nc(-c2cccs2)nc(O)c1O"
0.16

Given the compound "O=C(NCC1CCCCC1)c1nc(-c2cccs2)nc(O)c1O" , what is its reported IC50?
50
